Assay: Antioxidant activity assessed as decrease in ABTS radical cation scavenging activity incubated for 24 hrs by UV-Vis spectrophotometric analysis
Type: functional
EXPERIMENTAL_READOUT: pIC50
Scale: negative log10 of molar concentration, which is what pIC50 denotes.

CCOC(=O)/C(=N\Nc1ccc(C)cc1)C(=O)C(F)F = 4.27
COC(=O)/C(=N\Nc1ccccc1)C(=O)C(F)(F)F = 4.58
CCOC(=O)/C(=N\Nc1ccc(C)cc1)C(=O)C(F)(F)C(F)(F)C(F)(F)C(F)(F)F = 4.18

// query Sample COC(=O)/C(=N\Nc1ccc(C)cc1)C(=O)C(F)F — what was its pIC50?
// result 4.28

// query Entry CCOC(=O)/C(=N\Nc1ccc(OC)cc1)C(=O)C(F)(F)F has what pIC50?
// result 4.71

// query pIC50 lookup needed for COC(=O)/C(=N\Nc1ccc(OC)cc1)C(=O)C(F)(F)C(F)(F)C(F)(F)F , thanks.
// result 4.30

// query What value of measured pIC50 is listed for CCOC(=O)/C(=N\Nc1ccccc1)C(=O)C(F)(F)F ?
// result 4.57

// query Name the recorded pIC50 for CCOC(=O)/C(=N\Nc1ccc(Br)cc1)C(=O)C(F)(F)F .
// result 4.44

---

Biological target: Cholinesterase (Equus caballus, UniProt P81908)
Sequence (P81908 whole entry): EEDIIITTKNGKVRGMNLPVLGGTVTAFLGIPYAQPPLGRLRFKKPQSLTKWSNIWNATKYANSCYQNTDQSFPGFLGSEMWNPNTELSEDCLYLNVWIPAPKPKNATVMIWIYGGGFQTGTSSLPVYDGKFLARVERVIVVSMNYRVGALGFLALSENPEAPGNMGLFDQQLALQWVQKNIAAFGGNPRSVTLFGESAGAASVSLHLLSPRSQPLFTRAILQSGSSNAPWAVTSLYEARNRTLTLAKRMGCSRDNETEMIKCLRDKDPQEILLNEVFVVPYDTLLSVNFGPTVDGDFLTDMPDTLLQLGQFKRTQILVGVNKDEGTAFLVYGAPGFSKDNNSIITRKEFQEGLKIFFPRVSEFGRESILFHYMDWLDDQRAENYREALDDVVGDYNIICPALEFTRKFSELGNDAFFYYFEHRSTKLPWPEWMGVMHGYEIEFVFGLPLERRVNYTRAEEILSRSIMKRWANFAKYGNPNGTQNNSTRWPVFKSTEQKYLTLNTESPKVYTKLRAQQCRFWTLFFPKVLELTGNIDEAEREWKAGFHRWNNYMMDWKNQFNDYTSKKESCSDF
Assay: Inhibition of equine serum BuChE using […] as substrate preincubated for 10 mins followed by substrate addition by Ellman's method
EXPERIMENTAL_READOUT: pIC50
// scale note: pIC50 = -log10(conc_M); give the bare number

See these solved cases before continuing.
CCOC(=O)/C(=N\Nc1cccc(C)c1)C(=O)C(F)(F)F = 4.42
CCOC(=O)/C(=N\Nc1ccc(F)cc1)C(=O)C(F)(F)F = 4.95

With those in mind, consider the next compound.
// query So what does the record say about pIC50 for CCOC(=O)/C(=N\Nc1ccc(C)cc1)C(=O)C(F)(F)F ?
// result 5.08

---

The entries below come with measured log10(IC50) values attached.
Target: Liver carboxylesterase (Sus scrofa)
Scale: log10; quantity: IC50; unit before log: nM

CCOC(=O)/C(=N\Nc1ccc(C)cc1)C(=O)C(F)(F)F = 0.87

// query Query for Liver carboxylesterase (Sus scrofa): what log10(IC50) does the record show for CC(=O)/C(=N\Nc1ccc(C)cc1)C(=O)C(F)(F)F ?
// result 4.75

// query Recall the recorded log10(IC50) for CCOC(=O)/C(=N\Nc1cccc(C)c1)C(=O)C(F)(F)F with Liver carboxylesterase (Sus scrofa) and state it.
// result 0.86

// query Value wanted: log10(IC50) (Liver carboxylesterase (Sus scrofa)) of entry COC(=O)/C(=N\Nc1ccc(C)cc1)C(=O)C(F)(F)F
// result 1.44

// query Form entry - test system: Liver carboxylesterase (Sus scrofa); read-out: log10(IC50); molecule: CCOC(=O)/C(=N\Nc1ccc(C)cc1)C(=O)C(F)(F)C(F)(F)F
// result 2.21

// query Request - read-out log10(IC50) | tested on Liver carboxylesterase (Sus scrofa) | molecule COC(=O)/C(=N\Nc1ccc(C)cc1)C(=O)C(F)F
// result 3.20

// query Query the reported log10(IC50) for Liver carboxylesterase (Sus scrofa); item: CCOC(=O)/C(=N\Nc1ccc(C)cc1)C(=O)C(F)(F)C(F)(F)C(F)(F)C(F)(F)F
// result 1.95

// query API: value(readout=log10(IC50), system=Liver carboxylesterase (Sus scrofa)) for record COC(=O)/C(=N\Nc1ccccc1[N+](=O)[O-])C(=O)C(F)(F)F
// result 0.88

// query Query the reported log10(IC50) for Liver carboxylesterase (Sus scrofa); item: COC(=O)/C(=N\Nc1ccc(OC)cc1)C(=O)C(F)(F)F
// result 1.67

---

Assay: Antioxidant activity assessed as decrease in ABTS radical cation scavenging activity incubated for 24 hrs by UV-Vis spectrophotometric analysis
Assay type: functional
EXPERIMENTAL_READOUT: IC50 (µM)
Numbers only; they are read as µM.

Cc1ccc(N/N=C(\C(=O)c2ccccc2)C(=O)C(F)(F)F)cc1 = 12.8
CCOC(=O)/C(=N\Nc1cccc(C)c1)C(=O)C(F)(F)F = 25.4

// query GET /values?readout=IC50&item= COC(=O)/C(=N\Nc1ccc(OC)cc1)C(=O)C(F)(F)F
// result 22.5

---

Below, each entry is listed alongside its reported IC50.
Target: Cholinesterase (Equus caballus, UniProt P81908)
Assay: Inhibition of equine serum BuChE using […] as substrate preincubated for 10 mins followed by substrate addition by Ellman's method
Expressed in µM, but write only the number.

COC(=O)/C(=N\Nc1ccccc1[N+](=O)[O-])C(=O)C(F)(F)F = 45.1
CCOC(=O)/C(=N\Nc1ccccc1C(=O)OCC)C(=O)C(F)(F)F = 0.122

Consider the record given below.
// query For the compound shown here, CCOC(=O)/C(=N\Nc1ccc(C)cc1)C(=O)C(F)(F)C(F)(F)C(F)(F)F , give the reported IC50.
// result 42.1

---

Target: Liver carboxylesterase (Sus scrofa)
Sequence (Q29550 whole entry): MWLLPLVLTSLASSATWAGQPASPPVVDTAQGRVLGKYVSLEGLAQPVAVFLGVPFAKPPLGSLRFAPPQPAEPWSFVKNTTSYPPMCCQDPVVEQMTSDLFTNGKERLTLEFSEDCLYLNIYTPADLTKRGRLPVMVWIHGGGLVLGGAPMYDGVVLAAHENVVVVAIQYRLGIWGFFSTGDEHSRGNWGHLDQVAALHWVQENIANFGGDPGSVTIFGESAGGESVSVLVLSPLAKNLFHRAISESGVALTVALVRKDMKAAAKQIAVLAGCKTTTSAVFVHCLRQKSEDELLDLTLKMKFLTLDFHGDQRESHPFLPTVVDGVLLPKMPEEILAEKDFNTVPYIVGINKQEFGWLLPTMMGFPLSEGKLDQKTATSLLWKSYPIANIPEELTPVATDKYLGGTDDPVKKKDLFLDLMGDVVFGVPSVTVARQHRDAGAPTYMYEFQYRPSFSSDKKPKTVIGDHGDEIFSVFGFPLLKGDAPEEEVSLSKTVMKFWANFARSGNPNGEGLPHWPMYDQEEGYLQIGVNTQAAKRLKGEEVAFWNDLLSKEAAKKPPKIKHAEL
pIC50: −log10 of the molar value.
Output yes for pIC50 not less than 8; output no otherwise.

COC(=O)/C(=N\Nc1ccccc1)C(=O)C(F)(F)F = no

// query Entry CCOC(=O)/C(=N\Nc1ccccc1[N+](=O)[O-])C(=O)C(F)(F)F : is its pIC50 no less than 8?
// result yes

// query Evaluate COC(=O)/C(=N\Nc1ccc(OC)cc1)C(=O)C(F)(F)C(F)(F)C(F)(F)F : pIC50 at minimum 8?
// result no

// query Kindly determine if pIC50 recorded for Cc1ccc(N/N=C(\C(=O)c2ccccc2)C(=O)C(F)(F)F)cc1 is above or exactly 8.
// result no
